B1: TPR 5TU (parent)
chain: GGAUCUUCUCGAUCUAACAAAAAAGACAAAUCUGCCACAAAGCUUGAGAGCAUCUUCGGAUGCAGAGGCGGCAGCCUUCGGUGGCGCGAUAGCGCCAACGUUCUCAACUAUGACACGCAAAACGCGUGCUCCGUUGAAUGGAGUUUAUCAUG

Variants of: B1
TEST METHOD NOTES: polymerase ribozyme fitness, log enrichment relative to wild type (log ratio); higher = more active; in vitro selection for triplet polymerase activity
Variants at the floor of the assay were thinned out.
Recorded polymerase ribozyme fitness (log ratio) by entry
Would you mind answering with just the numeric figure?

The examples below pair each entry with its known result.
A20G A91G U146A    -3.96
C54A C69U U144C    -3.51
A3U C93A    -2.19
A21U C96U A113U    -2.6
C10U C85A    -3.35

## Task So what's the measured polymerase ribozyme fitness (log ratio) for this one? C114U G141C
## Result -3.4
